# protocol-details: AUC ( 0 to 24 hrs) in healthy human epithelial lining fluid at 150 mg, iv […]
# Format: ADME, organism-based
# Parameters: dose 150 mg, time < 24 hr, route intravenous
Numbered stars: 1 amine (or outer) side, 2 acyl side, 3 side chain; on linkers, the order of the positions; unused ones are H or OH. Bridge positions count the residues as written; N and C are the ends. Square brackets hold non-standard residues; d marks the D form. Peptide text beside a SMILES is read from it. * marks the point of attachment. hTyr(3S-OH,4S-OH,3'-OSO3H) = N[C@H](C(=O)O)[C@H](O)[C@@H](O)c1ccc(O)c(OS(=O)(=O)O)c1; Orn(4R-OH,5R-OH) = O=C([C@H](C[C@@H](O)[C@@H](O)N[*:3])N[*:1])[*:2]; Pro(3S-OH,4S-Me) = C[C@H]1CN[C@H](C(=O)O)[C@H]1O; X1 = CCCCCOc1ccc(-c2cc(-c3ccc(C(=O)*)cc3)no2)cc1; Gln(3R-OH) = NC(=O)C[C@@H](O)[C@H](N)C(=O)O; Hyp = O=C(O)[C@@H]1C[C@@H](O)CN1

{"molecule": "CCCCCOc1ccc(-c2cc(-c3ccc(C(=O)N[C@H]4C[C@@H](O)[C@@H](O)NC(=O)[C@@H]5[C@@H](O)[C@@H](C)CN5C(=O)[C@H]([C@H](O)CC(N)=O)NC(=O)[C@H]([C@H](O)[C@@H](O)c5ccc(O)c(OS(=O)(=O)O)c5)NC(=O)[C@@H]5C[C@@H](O)CN5C(=O)[C@H]([C@@H](C)O)NC4=O)cc3)no2)cc1 [MICAFUNGIN] (X1-[Orn(4R-OH,5R-OH)]T[Hyp][hTyr(3S-OH,4S-OH,3'-OSO3H)][Gln(3R-OH)][Pro(3S-OH,4S-Me)]; lactam 1-C)", "AUC at 24 h (ng·h/mL)": 10200}

###

# protocol-details: Drug concentration in healthy human epithelial lining fluid at 150 mg, iv QD measured after 4 hrs of third postdose by urea dilution method
# test-parameters: read-out: Drug uptake
Numbered stars: 1 amine (or outer) side, 2 acyl side, 3 side chain; on linkers, the order of the positions; unused ones are H or OH. Bridge positions count the residues as written; N and C are the ends. Square brackets hold non-standard residues; d marks the D form. Peptide text beside a SMILES is read from it. * marks the point of attachment. hTyr(3S-OH,4S-OH,3'-OSO3H) = N[C@H](C(=O)O)[C@H](O)[C@@H](O)c1ccc(O)c(OS(=O)(=O)O)c1; Orn(4R-OH,5R-OH) = O=C([C@H](C[C@@H](O)[C@@H](O)N[*:3])N[*:1])[*:2]; Pro(3S-OH,4S-Me) = C[C@H]1CN[C@H](C(=O)O)[C@H]1O; X1 = CCCCCOc1ccc(-c2cc(-c3ccc(C(=O)*)cc3)no2)cc1; Gln(3R-OH) = NC(=O)C[C@@H](O)[C@H](N)C(=O)O; Hyp = O=C(O)[C@@H]1C[C@@H](O)CN1

{"compound": "CCCCCOc1ccc(-c2cc(-c3ccc(C(=O)N[C@H]4C[C@@H](O)[C@@H](O)NC(=O)[C@@H]5[C@@H](O)[C@@H](C)CN5C(=O)[C@H]([C@H](O)CC(N)=O)NC(=O)[C@H]([C@H](O)[C@@H](O)c5ccc(O)c(OS(=O)(=O)O)c5)NC(=O)[C@@H]5C[C@@H](O)CN5C(=O)[C@H]([C@@H](C)O)NC4=O)cc3)no2)cc1 [MICAFUNGIN] (X1-[Orn(4R-OH,5R-OH)]T[Hyp][hTyr(3S-OH,4S-OH,3'-OSO3H)][Gln(3R-OH)][Pro(3S-OH,4S-Me)]; lactam 1-C)", "concentration at 4 h": "520 ng/mL"}
